- ASSAY SYSTEM: T1, human CD4 on the surface of SKW3 cells or human PBMCs (human, UniProt P01730 26-458)
- T1 construct: whole, on cells; SKW3 CD4 knockout cells served as the negative cell line; also called hCD4; SKW3 WT
- METHOD: FACS binning on SKW3 cells; competitor RPA-T4-PE-Dazzle 594 (its signal read); background 783, max binding 15000
ASSAY METRIC: RPA-T4-PE-Dazzle 594 signal
Just the number, please, no unit after it.

{"BINDER": "75110_01J09A (antibody, V domains shown, Tested here as non-clonal hybridoma supernatant from AlivaMab Mouse Kappa mice (detected with anti-mouse Fc and anti-human kappa)) VH: EVQLVESGGGLVQPGGSLRLSCVASGFTFSSYWMSWVRQAPGKGLEWVANTKEDGSDKYYVDSVKGRFTICRDNAKNSLYLQMNSLRAEDTAVYYCAREGGQWLALDYWGQGTLVTVSS VL: DIQMTQSPSSVSASVGDRVTINCRASQGISSWLAWYQQKPGKAPNLLIFGASSLQSGVPSRFSGSGFGTDFSLTITTLQPEDFATYHCQQANSFPWTFGQGTKVEIK", "RPA-T4-PE-Dazzle 594 signal": 14700}

# context switch: different binder, same RPA-T4-PE-Dazzle 594 signal
Tell me its RPA-T4-PE-Dazzle 594 signal given 75110_04B08A (antibody, V domains shown, Tested here as non-clonal hybridoma supernatant from AlivaMab Mouse Kappa mice (detected with anti-mouse Fc and anti-human kappa)) VH: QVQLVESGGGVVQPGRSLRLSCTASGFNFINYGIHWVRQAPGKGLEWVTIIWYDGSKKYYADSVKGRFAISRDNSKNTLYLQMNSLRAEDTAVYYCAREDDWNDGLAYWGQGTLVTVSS VL: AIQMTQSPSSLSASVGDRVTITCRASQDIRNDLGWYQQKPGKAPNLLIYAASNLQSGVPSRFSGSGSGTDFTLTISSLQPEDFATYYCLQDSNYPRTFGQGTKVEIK as the entry.
14900
